Data credit: patent US20210145976A1

Molecular target: T1, recombinant biotinylated CD71 extracellular domain (Sino Biologics) with an N-terminal 6His tag (human, UniProt P02786 89-760, biotinylated (sites not given))
T1 construct: extracellular domain; also called hCD71; huCD71
T1 sequence (P02786 other isoform, or with tags, fused parts or gaps): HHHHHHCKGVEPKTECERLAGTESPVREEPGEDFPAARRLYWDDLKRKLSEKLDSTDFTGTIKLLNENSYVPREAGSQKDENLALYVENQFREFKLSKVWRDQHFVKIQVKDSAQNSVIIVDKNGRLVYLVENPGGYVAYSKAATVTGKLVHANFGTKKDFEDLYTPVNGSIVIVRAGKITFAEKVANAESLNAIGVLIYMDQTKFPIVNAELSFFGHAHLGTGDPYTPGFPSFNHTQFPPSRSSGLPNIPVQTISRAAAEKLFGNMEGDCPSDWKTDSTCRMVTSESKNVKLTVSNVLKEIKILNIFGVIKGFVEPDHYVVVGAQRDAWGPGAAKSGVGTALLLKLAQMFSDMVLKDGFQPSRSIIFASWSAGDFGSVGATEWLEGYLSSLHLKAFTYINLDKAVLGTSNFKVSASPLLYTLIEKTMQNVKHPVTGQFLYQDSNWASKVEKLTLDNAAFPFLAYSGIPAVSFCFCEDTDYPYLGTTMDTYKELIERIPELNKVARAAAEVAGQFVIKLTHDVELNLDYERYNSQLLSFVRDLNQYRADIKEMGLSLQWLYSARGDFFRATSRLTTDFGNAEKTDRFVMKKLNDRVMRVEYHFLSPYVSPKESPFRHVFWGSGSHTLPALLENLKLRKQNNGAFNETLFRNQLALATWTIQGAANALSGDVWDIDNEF
Test: screening ELISA
MEASURE_NAME: hCD71

Look over these answered cases.
SEQ ID NO 141 (designed binder, FN3 domain) MLPAPKNLVVSRVTEDSARLSWTAPDAAFDSFVIEYFEQFNLGEAIVLTVPGSERSYDLTGLKPGTEYLVGIYGVKGGWLSHPLSAIFTT
2.04e+06
SEQ ID NO 290 (designed binder, FN3 domain) MLPAPKNLVVSRVTEDSARLSWTAPDAAFDSFFYLEQAWGGEAIVLTVPGSERSYDLTGLKPGTEYWVEITGVKGGYASSPLSAIFTT
2.81e+06
SEQ ID NO 288 (designed binder, FN3 domain) MLPAPKNLVVSRVTEDSARLSWTAPDAAFDSFLIPYAETSPSGEAIVLTVPGSERSYDLTGLKPGTEYSVLIHGVKGGDYSSPLSAISTT
659000

[I] SEQ ID NO 123 (designed binder, FN3 domain) MLPAPKNLVVSRVTEDSARLSWTAPDAAFDSFVIPYEEYLYTGEAIVLTVPGSERSYDLTGLKPGTEYDVWIEGVKGGLTSWPLSAIFTT
[II] SEQ ID NO 220 (designed binder, FN3 domain) MLPAPKNLVVSRVTEDSARLSWTAPDAAFDSFHIIYEEDGTEGEAIYLRVPGSERSYDLTGLKPGTEYEVDIEGVKGGVLSWPLFAEFTT
Sorting ascending by hCD71, which comes first: I or II ? Could you answer with the label of the item you picked?
I
(I: 707000, II: 4.25e+06)
